This collection of values is drawn from patent US20230295130A1.

Test system: ovarian cancer cells A2780
Measurement notes: Cell anti-proliferation experiment, MTT (Table 2)
Assay type: cell-based, human
Measurement parameters: Homo sapiens, A2780, 72 h, incubate 3 days
param class (str): category from IC50; see ranges interval 1: < 5 nM; interval 2: ≥ 5 nM and < 9 nM; interval 3: ≥ 9 nM

As a guide, the following entries are already answered.
Compound | Qualitative label
COC(=O)Nc1ccc2c(-c3nc(N[C@H]4CCCNC4)ncc3C(F)(F)F)c[nH]c2c1OC [Example T-37] | interval 2
COC(=O)Nc1ccc2c(-c3nc(N[C@H]4CCCNC4)ncc3C(F)(F)F)c[nH]c2c1Br [Example T-01] | interval 2
COC(=O)Nc1ccc2c(-c3nc(N[C@H]4CCC5(CC5)NC4)ncc3C(F)(F)F)c[nH]c2c1C1CC1 [Example T-128] | interval 2
COC(=O)Nc1ccc2c(-c3nc(N[C@H]4CCCNC4)ncc3C(F)(F)F)c[nH]c2c1C(C)(F)F [Example T-99] | interval 1

Please indicate the class for COC(=O)Nc1ccc2c(-c3nc(N[C@H]4CCCNC4)ncc3C(F)(F)F)c[nH]c2c1Cl [Example T-79] based on its IC50.
interval 3

Tag the class for COC(=O)Nc1ccc2c(-c3nc(N[C@H]4CCC5(CC5)NC4)ncc3C(F)(F)F)c[nH]c2c1C(F)F [Example T-156]
interval 1
